method: Intrinsic clearance in cryopreserved human hepatocyte suspension (Azamulin Assay)
Format: in vitro ADME
Listed here are compounds together with their documented hepatocyte CLint at 0.5 μM.

- compound: "C[C@H]1c2cccc([C@](C)(O)CF)c2CCN1C(=O)Cc1c(Cl)cnc(CO)c1Cl"
  readoutKind: "hepatocyte CLint at 0.5 μM"
  measValue: "~8.8 µL/min/1e6 cells"

// next entry
input: Look up and report measured hepatocyte CLint at 0.5 μM for this entry: CC1c2cccc(C(C)(O)CF)c2CCN1C(=O)Cc1c(Cl)cnc(CO)c1Cl (centres unmarked)
output: ~9.2 µL/min/1e6 cells
